System: RARb:RXRa (NR concentration 270 nM, RXRa partner concentration 90 nM)
Experiment: PBM binding z-score (relative to random genomic background probes); higher = stronger binding; sequences stand for … in GC…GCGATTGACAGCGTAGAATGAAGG
# PBM binding z-score annotations
measurement-kind: PBM binding z-score

sequence-code: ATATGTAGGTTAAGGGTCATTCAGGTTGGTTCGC
value: 3.79

sequence-code: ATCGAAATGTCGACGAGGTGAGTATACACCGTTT
value: 0.403

sequence-code: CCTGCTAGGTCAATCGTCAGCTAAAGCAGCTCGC
value: 3.63

sequence-code: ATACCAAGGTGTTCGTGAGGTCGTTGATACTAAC
value: 0.861

sequence-code: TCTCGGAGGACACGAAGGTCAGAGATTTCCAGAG
value: 3.4

sequence-code: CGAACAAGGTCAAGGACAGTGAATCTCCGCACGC
value: 5.2

sequence-code: TCTAGCAGGCCAGAGAGTCACTCAAGAGGTACGG
value: -0.0563

sequence-code: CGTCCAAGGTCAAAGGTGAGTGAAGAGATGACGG
value: 5.55

sequence-code: CCAGACAGGTGAGAAGGGAACTCAGCCTCGATTA
value: 0.228

sequence-code: CCAGACAGGTGAGAAGGTCACTCAGCCTCGATTA
value: 3.58

sequence-code: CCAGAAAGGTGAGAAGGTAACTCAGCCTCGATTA
value: 2.67

sequence-code: CGAACTAGGTCATAGACAGGACAGTGAATAGTAA
value: 3.55

* * *

Tested on: PPARg:RXRa 30nM:10nM, anti-RXR (NR concentration 30 nM, RXRa partner concentration 10 nM)
Assay: PBM binding z-score (relative to random genomic background probes); higher = stronger binding; sequences stand for … in GC…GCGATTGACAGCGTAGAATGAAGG
# PBM binding z-score annotations

sequence-code: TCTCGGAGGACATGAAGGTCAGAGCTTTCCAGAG
PBM binding z-score: 2.55
//
sequence-code: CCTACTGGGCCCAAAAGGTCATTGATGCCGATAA
PBM binding z-score: 0.593
//
sequence-code: TCTATTAGATGATTAGGGCAACCGAAACAGCGGA
PBM binding z-score: 3.31
//
sequence-code: CGTCAAAGCTCAAGGTAACGTAACAGAAAGCAGC
PBM binding z-score: 0.0179
//
sequence-code: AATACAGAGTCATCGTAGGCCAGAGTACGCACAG
PBM binding z-score: -0.0148
//
sequence-code: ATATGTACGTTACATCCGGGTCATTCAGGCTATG
PBM binding z-score: 0.502
//
sequence-code: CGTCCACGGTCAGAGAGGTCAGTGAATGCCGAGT
PBM binding z-score: -0.638
//
sequence-code: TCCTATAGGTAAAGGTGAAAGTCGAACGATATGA
PBM binding z-score: 3.81
//
sequence-code: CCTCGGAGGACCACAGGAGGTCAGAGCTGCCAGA
PBM binding z-score: -0.599
//
sequence-code: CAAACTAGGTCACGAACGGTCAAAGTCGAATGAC
PBM binding z-score: 5.99
//
sequence-code: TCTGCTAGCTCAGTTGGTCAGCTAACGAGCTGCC
PBM binding z-score: 0.674
//
sequence-code: ACCTCTAGGTAACCAAGTTCAGTGAATGCCGAAC
PBM binding z-score: -0.247
//
sequence-code: AATACAGGGTCAACGTAGGCCAGAGTACGCACAG
PBM binding z-score: 2.82
//
sequence-code: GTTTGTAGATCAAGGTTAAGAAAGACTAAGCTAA
PBM binding z-score: 1.48
//
sequence-code: ACTTACGGGTCAACGAGCTTATAGCACGCGTATA
PBM binding z-score: 1.71
//
sequence-code: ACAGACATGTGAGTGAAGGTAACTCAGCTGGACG
PBM binding z-score: -0.111
//
sequence-code: GCATATACGTAATACAAGGTGAAAGTCCGATTGT
PBM binding z-score: 0.287
//
sequence-code: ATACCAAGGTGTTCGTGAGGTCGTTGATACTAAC
PBM binding z-score: -0.0462
//
sequence-code: AATACAGGGTCATCGTAGGCAAGAGTACGCACAG
PBM binding z-score: 3.31
//
sequence-code: CCAGACAGGTGAAATGTAACTCAGTCTGGTACGC
PBM binding z-score: 0.324
//
sequence-code: ATCTCTAGGTAAGACCCAGTTCAGTGAAGAACGC
PBM binding z-score: 0.196
//
sequence-code: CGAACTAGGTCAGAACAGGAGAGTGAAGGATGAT
PBM binding z-score: 1.34
//
sequence-code: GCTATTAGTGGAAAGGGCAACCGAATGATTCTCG
PBM binding z-score: 1.97
//
sequence-code: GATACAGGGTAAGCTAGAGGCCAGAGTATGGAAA
PBM binding z-score: -0.0812
//
sequence-code: GGAACGAGGGAATTCGAGTTGATAGCATGGCGAT
PBM binding z-score: -0.356
//
sequence-code: TCACCAAGGTGAAAGGTCGTTGATGCACGCCTTG
PBM binding z-score: 6.81
//
sequence-code: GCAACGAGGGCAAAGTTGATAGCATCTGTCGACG
PBM binding z-score: 4.83
//
sequence-code: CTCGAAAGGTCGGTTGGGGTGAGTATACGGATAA
PBM binding z-score: 0.13
//
sequence-code: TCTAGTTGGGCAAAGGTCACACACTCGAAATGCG
PBM binding z-score: 9.07
//
sequence-code: CGTCAAAGTTCAAGGTAAGGTAACAGAAAGCAGC
PBM binding z-score: 1.78
//
sequence-code: GCGACTGGGGCATCTGCAGGTTACCATAACTTAA
PBM binding z-score: -0.39
//
sequence-code: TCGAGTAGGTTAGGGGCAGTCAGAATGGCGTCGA
PBM binding z-score: 0.558
//
sequence-code: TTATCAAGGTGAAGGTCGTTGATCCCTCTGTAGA
PBM binding z-score: 2.1
//
sequence-code: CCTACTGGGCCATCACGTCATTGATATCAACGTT
PBM binding z-score: 0.356
//
sequence-code: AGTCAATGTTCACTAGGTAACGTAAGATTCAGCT
PBM binding z-score: 0.15
//
sequence-code: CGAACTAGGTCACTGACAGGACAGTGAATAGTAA
PBM binding z-score: 3.86
//
sequence-code: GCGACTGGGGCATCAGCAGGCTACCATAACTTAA
PBM binding z-score: -1.02
//
sequence-code: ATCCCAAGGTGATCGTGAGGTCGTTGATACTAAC
PBM binding z-score: -0.299
//
sequence-code: GCGGCTGGGGCATCAGCAGGTTACCATAACTTAA
PBM binding z-score: -0.593
//
sequence-code: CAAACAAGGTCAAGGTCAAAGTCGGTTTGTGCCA
PBM binding z-score: 4.7
//
sequence-code: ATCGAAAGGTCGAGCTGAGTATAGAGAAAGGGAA
PBM binding z-score: 1.22
//
sequence-code: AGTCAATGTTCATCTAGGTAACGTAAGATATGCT
PBM binding z-score: -0.0799
//
sequence-code: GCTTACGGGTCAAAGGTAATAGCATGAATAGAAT
PBM binding z-score: 7.14
//
sequence-code: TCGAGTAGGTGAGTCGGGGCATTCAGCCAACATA
PBM binding z-score: 0.673
//
sequence-code: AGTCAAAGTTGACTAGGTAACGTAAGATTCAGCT
PBM binding z-score: 0.453
//
sequence-code: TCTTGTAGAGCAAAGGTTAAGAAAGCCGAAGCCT
PBM binding z-score: 8.43
//
sequence-code: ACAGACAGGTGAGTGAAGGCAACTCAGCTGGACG
PBM binding z-score: -0.458
//
sequence-code: AATACAGGGTCACTAGGACAGAGTAGGTACGAAT
PBM binding z-score: 3.02
//
sequence-code: GCTTACGGGTCAAAGGTTAGAGCATGAATAGAAT
PBM binding z-score: 8.08
//
sequence-code: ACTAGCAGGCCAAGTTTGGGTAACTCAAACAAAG
PBM binding z-score: -0.687
//
sequence-code: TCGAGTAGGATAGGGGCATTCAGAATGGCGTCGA
PBM binding z-score: 0.884
